Kindly state GI50 for each of the entries shown.
system: OVCAR-3; assay: NCI tumour cell line growth inhibition, 48 h
Activity calls are given as the source filed them. Cut-off read from the data, not from the text of the source: active = GI50 up to about 1.1 µM and inactive = higher.

response.value for C=C1C(=O)O[C@H]2[C@H]1[C@H](OC(=O)/C(C)=C\C)CC(=C)[C@@H]1[C@H](O)[C@H]3O[C@@]3(C)[C@@]12O (field: GI50) = > 100 µM (inactive)

response.value for O=Cc1cc2sc(C=O)cc2s1 (field: GI50) = > 100 µM (inactive)

response.value for O=C(O)CN1C(=O)CN=C(c2ccccn2)c2cc(Cl)ccc21 (field: GI50) = > 100 µM (inactive)

response.value for COc1ccc2nc(C(=O)c3ccccc3)c(C)cc2c1 (field: GI50) = 10.3 µM (inactive)

response.value for COC(=O)C(=O)C(C(=O)C(=O)Nc1ccc([N+](=O)[O-])cc1C#N)c1nc2ccc([N+](=O)[O-])cc2nc1O (stereo not given) (field: GI50) = > 100 µM (inactive)

response.value for O=C1c2ccccc2C(=O)c2c(Nc3ccc4c5c(cccc35)C(=O)c3ccccc3-4)cccc21 (field: GI50) = > 100 µM (inactive)

response.value for C1=C2C3=[N+](CCCC3)CC2Cc2sccc21 (stereo not given) (field: GI50) = 64.4 µM (inactive)

response.value for S=C(Nc1ccc2c(c1)oc1ccccc12)c1cccs1 (field: GI50) = 23 µM (inactive)

response.value for O=C1O/C(=C\c2ccccc2)N(c2ccccc2)C1=O (field: GI50) = > 100 µM (inactive)

response.value for CS(=O)(=O)c1cc(=O)c2ccccc2s1 (field: GI50) = 2.61 µM (inactive)

These entries and their values trace back to ChEMBL document CHEMBL1201862.
